Values were extracted from patent EP2140864A2.

- assay_target: human GAL1 receptor (Homo sapiens)
- Construct: expressed in transfected cells
- Sequence (P47211 whole entry): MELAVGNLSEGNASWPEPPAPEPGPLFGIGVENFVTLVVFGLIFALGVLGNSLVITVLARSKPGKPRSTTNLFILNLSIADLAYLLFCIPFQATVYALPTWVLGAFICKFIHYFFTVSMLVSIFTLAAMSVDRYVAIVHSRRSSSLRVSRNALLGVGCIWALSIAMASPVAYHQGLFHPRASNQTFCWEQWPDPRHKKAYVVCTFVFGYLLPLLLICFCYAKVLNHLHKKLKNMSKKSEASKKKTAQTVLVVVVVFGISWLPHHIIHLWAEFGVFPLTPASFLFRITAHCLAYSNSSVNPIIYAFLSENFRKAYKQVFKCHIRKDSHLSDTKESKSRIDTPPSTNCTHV
- test_details: Radioligand binding at cloned human GAL1 receptor
- experimental_parameters: pyrimidines, read-out: Ki GalR1
measured_quantity: pKi
By convention, pKi is the negative base-10 log of a molar concentration.

Solved cases (4 shown):
# compound_structure, assay_target, observed
records = [
    ("Cc1ccc(Nc2cc(N3CCCCC3)nc(N3CCc4ccccc4C3)n2)cc1", "human GAL1 receptor (Homo sapiens)", 5.67),
    ("Cc1ccc(Nc2cc(N3CCCCC3)nc(N3CCN(c4c(C)cccc4C)CC3)n2)cc1", "human GAL1 receptor (Homo sapiens)", 5.57),
    ("Cc1ccc(Nc2cc(N(C)C)nc(N3CCN(c4ncccc4C(F)(F)F)CC3)n2)cc1", "human GAL1 receptor (Homo sapiens)", 5.66),
    ("CN(C)c1cc(Nc2ccc(Cl)c(Cl)c2)nc(N(C)CCc2c[nH]c3ccccc23)n1", "human GAL1 receptor (Homo sapiens)", 5.31),
]

Alright, here's another compound for you.
Task item: Requested read-out: pKi. Entry: Cc1ccc(Nc2cc(N(C)C)nc(N3CCc4ccccc43)n2)cc1
Reply: 5.84

###

- assay_target: human GAL3 receptor (Homo sapiens)
- Construct: expressed in transfected cells
- Sequence (O60755 1-368): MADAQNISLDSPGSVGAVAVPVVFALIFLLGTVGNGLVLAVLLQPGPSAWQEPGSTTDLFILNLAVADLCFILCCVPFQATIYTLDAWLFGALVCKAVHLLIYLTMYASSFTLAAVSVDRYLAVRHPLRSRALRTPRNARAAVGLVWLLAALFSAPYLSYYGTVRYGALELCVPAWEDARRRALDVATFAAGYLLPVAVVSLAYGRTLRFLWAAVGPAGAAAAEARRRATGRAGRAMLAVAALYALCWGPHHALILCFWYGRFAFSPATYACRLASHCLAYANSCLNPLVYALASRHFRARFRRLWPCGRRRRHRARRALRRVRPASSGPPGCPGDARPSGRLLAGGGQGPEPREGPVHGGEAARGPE
- test_details: Radioligand binding at cloned human GAL3 receptor
- experimental_parameters: Table 9; read-out: hGAL3 Ki
- Procedure: The present invention provides for a method of determining the binding affinity of a GAL3 antagonist, wherein the GAL3 antagonist is dissolved in a "suitable solvent". […] The binding properties of the pyrimidines of the present invention were evaluated at the cloned human galanin receptors, GAL1, GAL2, and GAL3, using protocols described herein. […] Binding data were analyzed using nonlinear regression and statistical techniques available in the GraphPAD Prism package (San Diego, CA). […]
Some molecules, each annotated with its measured pKi.
By convention, pKi is the negative base-10 log of a molar concentration.

# compound_structure, observed
data = [
    ("O=C1C(=Nc2ccc(C(F)(F)F)cc2)c2ccccc2N1c1ccccc1", 7.54),
    ("Cc1ccc(Nc2cc(N3CCCCC3)nc(N(C)CCc3ccccc3)n2)cc1", 7.55),
]

Alright, here's another molecule for you.
Task item: Short answer please: pKi, human GAL3 receptor (Homo sapiens), entry O=C1C(=Nc2cccc(Cl)c2)c2ccccc2N1c1ccccc1
Reply: 7.31

###

- assay_target: Human 5HT2A Receptor (Homo sapiens)
- Construct: expressed in transfected cells; host or cells: COS-7 cells (pCEXV-3 vector, DEAE-dextran)
- Sequence (P28223 whole entry): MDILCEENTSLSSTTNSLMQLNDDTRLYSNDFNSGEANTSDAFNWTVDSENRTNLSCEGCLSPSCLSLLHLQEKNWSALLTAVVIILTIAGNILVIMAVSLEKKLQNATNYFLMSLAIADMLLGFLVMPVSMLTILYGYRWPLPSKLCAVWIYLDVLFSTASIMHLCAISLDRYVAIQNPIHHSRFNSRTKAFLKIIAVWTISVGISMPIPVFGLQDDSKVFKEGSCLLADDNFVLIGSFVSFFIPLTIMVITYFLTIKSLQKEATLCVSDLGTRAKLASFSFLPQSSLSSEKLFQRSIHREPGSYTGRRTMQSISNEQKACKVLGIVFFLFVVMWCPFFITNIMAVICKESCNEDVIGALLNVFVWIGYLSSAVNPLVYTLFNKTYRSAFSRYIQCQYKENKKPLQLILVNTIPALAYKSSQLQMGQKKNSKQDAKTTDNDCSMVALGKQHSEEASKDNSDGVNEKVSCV
- test_details: Radioligand binding, 5HT2A receptor ([3H]ketanserin)
- experimental_parameters: Table 8; Ki h5HT2A divided by Ki hGAL3
Some molecules, each annotated with its measured selectivity ratio h5HT2A.

Solved cases (3 shown):
# molecule, selectivity ratio h5HT2A
data = [
    ("O=C1C(=Nc2cccc(Cl)c2)c2ccccc2N1c1ccccc1 [Example 94]", ">100"),
    ("O=C1C(=Nc2ccc(Br)cc2)c2ccccc2N1c1ccccc1 [Example 98]", ">100"),
    ("Cc1ccc(Nc2cc(N3CCCCC3)nc(N(C)CCc3ccccc3)n2)cc1 [Example 22]", ">100"),
]

Task item: Requested read-out: selectivity ratio h5HT2A. Entry: Cc1ccc(Nc2cc(N3CCCCC3)nc(N(C)CCc3c[nH]c4ccccc34)n2)cc1 [Example 11]
Reply: >30

Task item: Requested read-out: selectivity ratio h5HT2A. Entry: O=C1C(=Nc2ccc(C(F)(F)F)cc2)c2ccccc2N1c1ccccc1 [Example 95]
Reply: >100

Task item: Requested read-out: selectivity ratio h5HT2A. Entry: CN(C)c1cc(Nc2ccc(Cl)c(Cl)c2)nc(Nc2ccccc2)n1 [Example 60]
Reply: >100

Task item: Requested read-out: selectivity ratio h5HT2A. Entry: COC[C@@H]1[C@@H](c2ccccc2)OCCN1c1nc(Nc2ccc(C)cc2)cc(N2CCCCC2)n1 [Example 49]
Reply: >100

###

- assay_target: human 5HT6 (Homo sapiens, UniProt P50406)
- Construct: expressed in transfected cells
- Sequence (P50406 whole entry): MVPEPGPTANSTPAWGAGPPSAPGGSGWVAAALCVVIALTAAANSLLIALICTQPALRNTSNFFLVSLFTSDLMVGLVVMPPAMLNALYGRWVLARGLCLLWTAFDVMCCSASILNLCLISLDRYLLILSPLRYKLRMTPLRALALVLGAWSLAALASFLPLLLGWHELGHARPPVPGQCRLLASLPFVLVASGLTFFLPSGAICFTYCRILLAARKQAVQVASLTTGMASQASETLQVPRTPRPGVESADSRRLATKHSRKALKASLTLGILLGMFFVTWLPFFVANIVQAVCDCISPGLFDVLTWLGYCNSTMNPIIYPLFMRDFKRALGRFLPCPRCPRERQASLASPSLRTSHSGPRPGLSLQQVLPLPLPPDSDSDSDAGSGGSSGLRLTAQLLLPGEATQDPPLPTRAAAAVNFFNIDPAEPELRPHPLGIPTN
- test_details: Radioligand binding, 5-HT6 receptor
- experimental_parameters: Table 8; Ki h5HT6 divided by Ki hGAL3
measured_quantity: selectivity ratio h5HT6

Solved cases (10 shown):
# compound_structure, selectivity ratio h5HT6
rows = [
    ("Cc1ccc(Nc2cc(N3CCCCC3)nc(N3CCN(c4ncccc4C(F)(F)F)CC3)n2)cc1", ">100"),
    ("CN(CCc1c[nH]c2ccccc12)c1nc(Nc2ccc(F)c(F)c2)cc(N2CCCCC2)n1", 20),
    ("O=C1C(=Nc2ccc(Br)cc2)c2ccccc2N1c1ccccc1", ">100"),
    ("CN(C)c1cc(Nc2ccc(Cl)c(Cl)c2)nc(Nc2ccccc2)n1", ">100"),
    ("Cc1ccc(Nc2cc(N(C)C)nc(N(C)CCc3c[nH]c4ccccc34)n2)cc1", 6),
    ("O=C1C(=Nc2ccc(C(F)(F)F)cc2)c2ccccc2N1c1ccccc1", ">100"),
    ("O=C1C(=Nc2ccc(Cl)cc2)c2ccccc2N1c1ccccc1", ">100"),
    ("O=C1C(=Nc2cccc(C(F)(F)F)c2)c2ccccc2N1c1ccccc1", ">100"),
    ("COc1cccc(Nc2cc(N3CCCCC3)nc(N(C)CCc3c[nH]c4ccccc34)n2)c1", 8),
    ("Cc1ccc(Nc2cc(N3CCCCC3)nc(N(C)CCc3ccccc3)n2)cc1", ">30"),
]

Task item: Requested read-out: selectivity ratio h5HT6. Entry: O=C1C(=Nc2cccc(Cl)c2)c2ccccc2N1c1ccccc1
Reply: >30

Task item: Requested read-out: selectivity ratio h5HT6. Entry: Cc1ccc(Nc2cc(N3CCCCC3)nc(N(C)CCc3c[nH]c4ccccc34)n2)cc1
Reply: 9

###

Some compounds, each annotated with its measured Ki.
- assay_target: human GAL3 receptor (Homo sapiens, UniProt O60755)
- Construct: expressed in transfected cells
- test_details: Radioligand binding at cloned human GAL3 receptor
- experimental_parameters: pyrimidines, cloned human receptor; read-out: Ki GalR3
Put down the number, then write its unit next to it.

# compound, Ki
data = [
    ("Cc1ccc(Nc2cc(N(C)C)nc(N3CCN(c4cccc(C)c4)CC3)n2)cc1 [Example 86]", "227 nM"),
    ("CN(C)c1cc(NC2C3CC4CC(C3)CC2C4)nc(N2CCN(Cc3ccccc3)CC2)n1 (centres unmarked) [Example 168]", "50 nM"),
]

Task item: Requested read-out: Ki. Entry: Cc1ccc(Nc2cc(N3CCCCC3)nc(Nc3ccc(Cl)cc3)n2)cc1 [Example 5]
Reply: 345 nM

Task item: Requested read-out: Ki. Entry: CN(C)c1cc(NC2CCCCCC2)nc(N2CCN(Cc3ccccc3)CC2)n1 [Example 128]
Reply: 249 nM

Task item: Requested read-out: Ki. Entry: CN(C)c1cc(Nc2ccc(Br)c(C(F)(F)F)c2)nc(N2CCN(c3ccccn3)CC2)n1 [Example 133]
Reply: 60 nM

Task item: Requested read-out: Ki. Entry: CN(C)c1cc(Nc2ccccc2Cc2ccccc2)nc(N2CCN(c3ccccn3)CC2)n1 [Example 186]
Reply: 69 nM

Task item: Requested read-out: Ki. Entry: Cc1ccc(Nc2cc(N3CCCCC3)nc(N3CCN(c4ccccn4)CC3)n2)cc1 [Example 30]
Reply: 197 nM

Task item: Requested read-out: Ki. Entry: Cc1ccc(Nc2cc(N3CCCCC3)nc(Nc3ccccc3)n2)cc1 [Example 3]
Reply: 163 nM

###

- assay_target: rat D3 receptors (Rattus norvegicus)
- Construct: purchased BioSignal, Inc. (Montreal, Canada)
- Sequence (P19020 whole entry): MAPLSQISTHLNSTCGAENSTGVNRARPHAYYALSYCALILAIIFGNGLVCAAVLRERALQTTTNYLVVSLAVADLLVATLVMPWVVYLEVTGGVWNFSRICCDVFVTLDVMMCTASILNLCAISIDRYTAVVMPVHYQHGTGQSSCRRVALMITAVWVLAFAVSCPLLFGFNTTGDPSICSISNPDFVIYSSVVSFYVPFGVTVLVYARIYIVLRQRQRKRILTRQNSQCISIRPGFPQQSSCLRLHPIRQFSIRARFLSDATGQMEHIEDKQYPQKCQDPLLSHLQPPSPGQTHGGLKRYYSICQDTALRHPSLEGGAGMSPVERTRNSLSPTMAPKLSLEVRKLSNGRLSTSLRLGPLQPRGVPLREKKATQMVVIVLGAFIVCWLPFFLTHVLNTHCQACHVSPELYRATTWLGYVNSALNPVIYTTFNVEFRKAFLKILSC
- test_details: Radioligand binding, dopamine D3 receptor
- experimental_parameters: Table 10; Ki rD3 divided by Ki hGAL3
Some compounds, each annotated with its measured selectivity ratio rD3.
Lab note: record just the number, no unit beside it.

# compound, measured_quantity, observed
measured = [
    ("COc1cccc(Nc2cc(N3CCCCC3)nc(N(C)CCc3c[nH]c4ccccc34)n2)c1 [Example 17]", "selectivity ratio rD3", 28),
    ("O=C1C(=Nc2ccc(Br)cc2)c2ccccc2N1c1ccccc1 [Example 98]", "selectivity ratio rD3", 16),
    ("O=C1C(=Nc2cccc(Cl)c2)c2ccccc2N1c1ccccc1 [Example 94]", "selectivity ratio rD3", 9),
    ("O=C1C(=Nc2ccc(C(F)(F)F)cc2)c2ccccc2N1c1ccccc1 [Example 95]", "selectivity ratio rD3", 16),
]

Task item: Requested read-out: selectivity ratio rD3. Entry: Cc1ccc(Nc2cc(N3CCCCC3)nc(N(C)CCc3c[nH]c4ccccc34)n2)cc1 [Example 11]
Reply: 24
